run-description: refractive index (Na D-line) (dimensionless)
experimental-setup: 328.15 K; 101.33 kPa; Liquid; Standard Abbe refractometry
Numbers after ± are expanded uncertainties.
The compounds listed here are annotated with their refractive index.
outcome-measure: refractive index

>>> result("CCCCCCCCCCCC[n+]1ccccc1.O=S(=O)([N-]S(=O)(=O)C(F)(F)F)C(F)(F)F [1-dodecylpyridinium bis(trifluoromethylsulfonyl)imide]")
"1.4409 ± 0.00058"
>>> result("CCCCCCCC[n+]1ccccc1.O=S(=O)([N-]S(=O)(=O)C(F)(F)F)C(F)(F)F [1-octylpyridinium bis((trifluoromethyl)sulfonyl)amide]")
"1.43827 ± 0.00058"
>>> result("CCCCCCCCCC[n+]1ccccc1.O=S(=O)([N-]S(=O)(=O)C(F)(F)F)C(F)(F)F [1-decylpyridinium bis(trifluoromethylsulfonyl)imide]")
"1.43943 ± 0.00059"
>>> result("CCCC[n+]1ccccc1.O=S(=O)([N-]S(=O)(=O)C(F)(F)F)C(F)(F)F [1-butylpyridinium bis[(trifluoromethyl)sulfonyl]imide]")
"1.43496 ± 0.00057"

Cited source for all entries: the NIST ThermoML archive (doi:10.1016/j.jct.2009.11.004)
